- System: ING3
- Experiment summary: Histone peptide microarray
- Type: binding, human
- Applied conditions: ING3, GST-tagged; arrays performed twice, n of 4
Where no end group is shown, it is not given here. [ ]: non-standard residue; d: D form. Arg(Me2a) = CN(C)C(=N)NCCC[C@H](N)C(=O)O; pS = N[C@@H](COP(=O)(O)O)C(=O)O
Measurement kind: Array Heatmap value (peptide array binding signal)

Substance | Measured
H2AR3me2a + K5ac: H2A 1-17 (SG[Arg(Me2a)]GK(Ac)QGGKARAKAKTR; UniProt P0C0S8 2-18, looked up, fragment) | 0.4528
H2A.Z K4ac + K8ac + K12ac (1-19) (N-ac): H2AZ 1-19 (Ac-AGGKAGKDSGKAKTKAVSR; not fully specified (residue 4); UniProt P0C0S5 2-20, looked up, fragment) | 0.5369
Myc-Tag: 1-10 (ILKKATAYIL; Myc epitope tag; UniProt P01106 410-419, looked up, fragment) | 0.5082
H2AS1p + R3me2a + K5ac: H2A 1-17 ([pS]G[Arg(Me2a)]GK(Ac)QGGKARAKAKTR; UniProt P0C0S8 2-18, looked up, fragment) | 0.5376
H2A.Z (1-19): H2AZ 1-19 (AGGKAGKDSGKAKTKAVSR; UniProt P0C0S5 2-20, looked up, fragment) | 0.5693
H2AX (132-142): H2AX 132-142 (GKKATQASQEY; UniProt P16104 133-143, looked up, fragment) | 0.4477

---

- Test system: DPF2 (PPC2W2)
- Experiment summary: Histone peptide microarray
- Type: binding, human
- Applied conditions: DPF2 (PPC2W2), GST-tagged; arrays performed twice, n of 4
Where no end group is shown, it is not given here. [ ]: non-standard residue; d: D form. Arg(Me2a) = CN(C)C(=N)NCCC[C@H](N)C(=O)O; pS = N[C@@H](COP(=O)(O)O)C(=O)O
Measurement kind: Array Heatmap value (peptide array binding signal)

Substance | Assay system | Measured
Myc-Tag: 1-10 (ILKKATAYIL; Myc epitope tag; UniProt P01106 410-419, looked up, fragment) | DPF2 (PPC2W2) | 0.6957
H2AX (132-142): H2AX 132-142 (GKKATQASQEY; UniProt P16104 133-143, looked up, fragment) | DPF2 (PPC2W2) | 0.6502
H4K12ac + KQ5,8,16,20: H4 1-23 (SGRGQGGQGLGK(Ac)GGAQRHRQVLR; UniProt P62805 2-24, looked up, variant K5Q K8Q K16Q K20Q) | DPF2 (PPC2W2) | 0.6849
H2A.Z (1-19): H2AZ 1-19 (AGGKAGKDSGKAKTKAVSR; UniProt P0C0S5 2-20, looked up, fragment) | DPF2 (PPC2W2) | 0.7315
H2A.Z K4ac + K8ac + K12ac (1-19) (N-ac): H2AZ 1-19 (Ac-AGGKAGKDSGKAKTKAVSR; not fully specified (residue 4); UniProt P0C0S5 2-20, looked up, fragment) | DPF2 (PPC2W2) | 0.7519
H2A.Z (1-19) (N-ac): H2AZ 1-19 (Ac-AGGKAGKDSGKAKTKAVSR; UniProt P0C0S5 2-20, looked up, fragment) | DPF2 (PPC2W2) | 0.6034
H2AS1p + R3me2a + K5ac: H2A 1-17 ([pS]G[Arg(Me2a)]GK(Ac)QGGKARAKAKTR; UniProt P0C0S8 2-18, looked up, fragment) | DPF2 (PPC2W2) | 0.758
H2AX (S139p): H2AX 132-142 (GKKATQA[pS]QEY; UniProt P16104 133-143, looked up, fragment) | DPF2 (PPC2W2) | 0.653
H2AS1p + K5ac: H2A 1-17 ([pS]GRGK(Ac)QGGKARAKAKTR; UniProt P0C0S8 2-18, looked up, fragment) | DPF2 (PPC2W2) | 0.5432
H2AR3me2a + K5ac: H2A 1-17 (SG[Arg(Me2a)]GK(Ac)QGGKARAKAKTR; UniProt P0C0S8 2-18, looked up, fragment) | DPF2 (PPC2W2) | 0.6169

---

- System: BPTF (PB)
- Experiment summary: Histone peptide microarray
- Type: binding, human
- Applied conditions: BPTF (PB), GST-tagged; arrays performed twice, n of 4
Where no end group is shown, it is not given here. [ ]: non-standard residue; d: D form. Arg(Me2a) = CN(C)C(=N)NCCC[C@H](N)C(=O)O; pS = N[C@@H](COP(=O)(O)O)C(=O)O
Measurement kind: Array Heatmap value (peptide array binding signal)

Substance | Assay system | Measured
H2A.Z (1-19) (N-ac): H2AZ 1-19 (Ac-AGGKAGKDSGKAKTKAVSR; UniProt P0C0S5 2-20, looked up, fragment) | BPTF (PB) | 0.3189
H2AX (S139p): H2AX 132-142 (GKKATQA[pS]QEY; UniProt P16104 133-143, looked up, fragment) | BPTF (PB) | 0.3554
H2AR3me2a + K5ac: H2A 1-17 (SG[Arg(Me2a)]GK(Ac)QGGKARAKAKTR; UniProt P0C0S8 2-18, looked up, fragment) | BPTF (PB) | 0.3416
H4K12ac + KQ5,8,16,20: H4 1-23 (SGRGQGGQGLGK(Ac)GGAQRHRQVLR; UniProt P62805 2-24, looked up, variant K5Q K8Q K16Q K20Q) | BPTF (PB) | 0.3429
H2A.Z (1-19): H2AZ 1-19 (AGGKAGKDSGKAKTKAVSR; UniProt P0C0S5 2-20, looked up, fragment) | BPTF (PB) | 0.4073
H2AS1p + R3me2a + K5ac: H2A 1-17 ([pS]G[Arg(Me2a)]GK(Ac)QGGKARAKAKTR; UniProt P0C0S8 2-18, looked up, fragment) | BPTF (PB) | 0.3885
H2AS1p + K5ac: H2A 1-17 ([pS]GRGK(Ac)QGGKARAKAKTR; UniProt P0C0S8 2-18, looked up, fragment) | BPTF (PB) | 0.2697
H2A.Z K4ac + K8ac + K12ac (1-19) (N-ac): H2AZ 1-19 (Ac-AGGKAGKDSGKAKTKAVSR; not fully specified (residue 4); UniProt P0C0S5 2-20, looked up, fragment) | BPTF (PB) | 0.4048
H2AX (132-142): H2AX 132-142 (GKKATQASQEY; UniProt P16104 133-143, looked up, fragment) | BPTF (PB) | 0.3256
Myc-Tag: 1-10 (ILKKATAYIL; Myc epitope tag; UniProt P01106 410-419, looked up, fragment) | BPTF (PB) | 0.3544

---

- Test system: KDM5B (3)
- Experiment summary: Histone peptide microarray
- Assay type: binding, human
- Applied conditions: KDM5B (3), GST-tagged; arrays performed twice, n of 4
Where no end group is shown, it is not given here. [ ]: non-standard residue; d: D form. Arg(Me2a) = CN(C)C(=N)NCCC[C@H](N)C(=O)O; pS = N[C@@H](COP(=O)(O)O)C(=O)O
Measurement kind: Array Heatmap value (peptide array binding signal)

Substance | Measured
H2AS1p + K5ac: H2A 1-17 ([pS]GRGK(Ac)QGGKARAKAKTR; UniProt P0C0S8 2-18, looked up, fragment) | 0.3803
H2AS1p + R3me2a + K5ac: H2A 1-17 ([pS]G[Arg(Me2a)]GK(Ac)QGGKARAKAKTR; UniProt P0C0S8 2-18, looked up, fragment) | 0.5099
H4K12ac + KQ5,8,16,20: H4 1-23 (SGRGQGGQGLGK(Ac)GGAQRHRQVLR; UniProt P62805 2-24, looked up, variant K5Q K8Q K16Q K20Q) | 0.4684
H2A.Z (1-19) (N-ac): H2AZ 1-19 (Ac-AGGKAGKDSGKAKTKAVSR; UniProt P0C0S5 2-20, looked up, fragment) | 0.4159
Myc-Tag: 1-10 (ILKKATAYIL; Myc epitope tag; UniProt P01106 410-419, looked up, fragment) | 0.4322
H2AR3me2a + K5ac: H2A 1-17 (SG[Arg(Me2a)]GK(Ac)QGGKARAKAKTR; UniProt P0C0S8 2-18, looked up, fragment) | 0.4618

---

- System: TRIM66 (PB)
- Experiment summary: Histone peptide microarray
- Type: binding, human
- Applied conditions: TRIM66 (PB), GST-tagged; arrays performed twice, n of 4
Where no end group is shown, it is not given here. [ ]: non-standard residue; d: D form. Arg(Me2a) = CN(C)C(=N)NCCC[C@H](N)C(=O)O; pS = N[C@@H](COP(=O)(O)O)C(=O)O
Measurement kind: Array Heatmap value (peptide array binding signal)

Substance | Measured
H2AR3me2a + K5ac: H2A 1-17 (SG[Arg(Me2a)]GK(Ac)QGGKARAKAKTR; UniProt P0C0S8 2-18, looked up, fragment) | 0.6358
H2AS1p + K5ac: H2A 1-17 ([pS]GRGK(Ac)QGGKARAKAKTR; UniProt P0C0S8 2-18, looked up, fragment) | 0.4856
H4K12ac + KQ5,8,16,20: H4 1-23 (SGRGQGGQGLGK(Ac)GGAQRHRQVLR; UniProt P62805 2-24, looked up, variant K5Q K8Q K16Q K20Q) | 0.6047
